Taken from ChEMBL document CHEMBL1201862.

# Tested on: KM12
# methodSummary: NCI tumour cell line growth inhibition, 48 h
Calls of active or inactive are those of the source. Rule as the data show it: active = GI50 up to about 1.1 µM and inactive = higher.
reportedEndpoint: GI50

Report GI50, nothing else, for this compound: O=C1c2cc(Br)ccc2-c2ccc3c4ccc5c6c(ccc(c7ccc1c2c73)c64)C(=O)c1cc(Br)ccc1-5
> 100 µM (inactive)

Give the reported GI50 for this compound. Cn1c2ccccc2c(=NNc2ccc(S(=O)(=O)N=C(N)N)cc2)c2ccccc21
7.98 µM (inactive)

Using known records, supply GI50 for CN1CCN(c2cc3nc4cc(O)cc(O)c4c(O)c3cc2N)CC1
27.4 µM (inactive)

For the compound C#C[C@@H](OC(=O)c1ccc([N+](=O)[O-])cc1)[C@@H]1C[C@H]2O[C@@H]([C@H](C/C=C/CC)OC(=O)c3ccc([N+](=O)[O-])cc3)C[C@H]2O1 , report GI50.
> 100 µM (inactive)

Query GI50 for Cc1ccc(S(=O)(=O)OC2=C/C(=N\c3onc(C)c3C)c3ccccc3C2=O)cc1
20.2 µM (inactive)

Annotate the compound COC(=O)C1=C(C(=O)OC)C23CC4CCC2(C(=O)C1O3)C4(C)C (stereo not drawn) with its measured GI50.
> 100 µM (inactive)

Could you please provide reported GI50 for C[C@]12CC[C@H](O)CC1=CC[C@@H]1C2CC[C@]2(C)Nc3c(cnn3-c3ccccc3)CC12 (stereo partly drawn) ? Thanks!
2.05 µM (inactive)

Please report the measured GI50 for CCOC1OC(CO[Si](C)(C)C(C)(C)C)C(O)CC1n1ccc(=O)[nH]c1=O (stereo not drawn)
88.7 µM (inactive)

* * *

Record form. Attribute: GI50. Fill in for each entry.
# System: SNB-19
# methodSummary: NCI tumour cell line growth inhibition, 48 h
The source made the active and inactive calls. No stated cut-off is given here; in the data, active = GI50 up to about 1.1 µM and inactive = higher.

Return the recorded GI50 value; entry: C#C[C@@H](OC(=O)c1ccc([N+](=O)[O-])cc1)[C@@H]1C[C@H]2O[C@@H]([C@H](C/C=C/CC)OC(=O)c3ccc([N+](=O)[O-])cc3)C[C@H]2O1
> 100 µM (inactive)

Look up and report measured GI50 for this entry: On1c(-c2ccccc2)c(-c2c(-c3ccccc3)n(O)c3ccccc23)c2ccccc21
67.5 µM (inactive)

Specify GI50 for CCCc1c(C(=O)OCC)[nH]c(-c2ccc(-c3[nH]c(C(=O)OCC)c(CCC)c3C(=O)OCC)s2)c1C(=O)OCC and stop.
78.3 µM (inactive)

Using known records, supply GI50 for COc1ccc(C(=O)C=C2NCCN2)cc1
> 100 µM (inactive)

Using known records, supply GI50 for COc1ccc(O[C@H](COCc2ccccc2)C[C@@H]2COC(C)(C)O2)cc1
> 100 µM (inactive)

Name the recorded GI50 of the compound listed here: N#Cc1ccc(-n2c3ccccc3c3ccc4c(c32)C(=O)C=CC4=O)cc1
10.1 µM (inactive)

Give recorded GI50. CC(C)(CCCCC(C)(C)C1NC(=O)N1)C1NC(=O)N1
> 10 µM (inactive)

Determine from records and report GI50 for Cc1ccc(NC(=O)C(=O)CC(=O)c2c(C)[n+]([O-])c3ccccc3[n+]2[O-])cc1
54.1 µM (inactive)

* * *

# System: COLO 205
# methodSummary: NCI tumour cell line growth inhibition, 48 h
The source made the active and inactive calls. Cut-off read from the data, not from the text of the source: active = GI50 up to about 1.1 µM and inactive = higher.
Result category, one only: 1 (yes) = active, 0 (no) = inactive

# outcome recorded in this test, key = N#C/C(=C\c1cc(O)ccc1O)C(N)=O
0 (no)

Answer briefly: the call reported for COc1ccc(N2C(=O)CC(Cl)C2=O)cc1 (stereo unspecified) in this assay.
0 (no)

Assay result, entry COC(=O)C1=C(C(=O)OC)C23CC4CCC2(C(=O)C1O3)C4(C)C (stereo unspecified) — outcome?
0 (no)

# lookup: test call for Cc1sc(/N=C/c2c[nH]c3ccccc23)c(C#N)c1C
0 (no)

Please share the test call associated with Nc1nc(SCC(=O)c2ccccc2)c2[nH]cnc2n1 .
0 (no)

Entry CCOC(=O)CCC(NC(=O)c1ccc(Nc2nc3ccccc3n3cccc23)cc1)C(=O)OCC (stereo unspecified) : call = ?
0 (no)

Please indicate how the test categorized NCc1cc(O)c(O)c(O)c1 .
0 (no)

Each compound tested received a call. Report the one for CCOC(=O)c1ccc(N2C(=O)/C(=C\OC)c3ccccc3C2=O)cc1 .
0 (no)

Which outcome was entered for the compound Cc1ccc(-c2cn3c(nc4ccccc43)c(C)n2)cc1 in this test?
0 (no)

GET /call?item= CCCCn1c(C)c(C(=O)OCC)c2cc(OCc3ccc(C(=O)Nn4c(C)ccc4C)cc3)c(Br)cc21 returns the recorded outcome of this test.
0 (no)

Please share the test call associated with CCSC1=C(C)N(/C=N/C(C)(C)C)CC1 .
0 (no)

How did this test come out for COc1ccc2c(n1)Sc1nc3ccccc3nc1N2 ?
0 (no)

Test call for this compound, please: CC(=O)OC1CCn2c1nc1c2C(=O)C=C(N2CC2)C1=O (stereo unspecified)
1 (yes)

Recorded test outcome, item Oc1cc(Cl)cc2cc(Cl)cnc12
0 (no)

Which outcome was entered for the compound Clc1ccc(/N=N/c2nc3ccccc3nc2/N=N/c2ccc(Cl)cc2Cl)c(Cl)c1 in this test?
0 (no)

Please state the recorded outcome for this compound: CC(C)[C@H]1NC(=O)[C@H]2N=C(O[C@@H]2C)[C@@H]2CCCN2C(=O)[C@H](Cc2ccccc2)NC(=O)[C@@H]2COC(=N2)[C@@H](Cc2ccccc2)NC(=O)[C@@H]2COC1=N2
0 (no)

// param item: CS(=O)(=O)Sc1ccc(Cl)cc1 ; yields the recorded call
0 (no)

I'd appreciate the recorded outcome for O=c1[nH]nc(Cc2ccccc2)n1/N=C/c1ccncc1 from this test.
0 (no)

How did this test come out for CCOC1OC(CO[Si](C)(C)C(C)(C)C)C(O)CC1n1ccc(=O)[nH]c1=O (stereo unspecified) ?
0 (no)

How was CC[n+]1c(/C=C/c2ccc(N(CCCl)CCCl)cc2)ccc2cc(I)ccc21 classified in this test?
1 (yes)

Please let me know the test result on file for COC(=O)C1=C(C(=O)OC)C2(CCCCCC2=O)OC1=O (stereo unspecified) .
0 (no)

Which result was noted for this compound in the test: CCN(CC)CCNC(=O)c1nn(C)c(=S)[nH]c1=S
0 (no)

Look up the recorded call for CN(C(=O)[C@@H](NC(=O)OC(C)(C)C)c1ccccc1)[C@H]1CCCC[C@@H]1N1CCCC1 in this test.
0 (no)

I'd appreciate the recorded outcome for O=C(O)c1cc(S(=O)(=O)N/N=C\c2c3ccccc3[n+]([O-])c3ccccc23)ccc1O from this test.
0 (no)

What did this assay record as the result for N#Cc1c(N2CCN(c3ccc([N+](=O)[O-])cc3)CC2)[n+]([O-])c2ccccc2[n+]1[O-] ?
0 (no)

For CCc1ccc(Cc2ccc(CC)c(NC(=O)C(=O)Cc3nc4ccccc4nc3C)c2CC)c(CC)c1NC(=O)C(=O)Cc1nc2ccccc2nc1C , what call appears in the results of this test?
0 (no)
